MIC values for the compounds below.
system: Candida albicans; assay: Antifungal activity against Candida albicans MTCC-183 after 3 to 4 days by serial plate dilution method; format: functional; details: Candida albicans, MTCC-183
Entry format: amount then unit.

Here's what some known entries look like.
Which MIC reading was recorded for the compound Cc1ccccc1N1C(=O)C(Cl)C12C(=O)Nc1ccccc12 (stereo unspecified) ?
25 µg/mL

Which MIC reading was recorded for the compound OC(Cn1cncn1)(Cn1cncn1)c1ccc(F)cc1F ?
6.25 µg/mL

Which MIC reading was recorded for the compound O=C1C(Cl)C2(C(=O)Nc3ccccc32)N1c1ccccc1 (stereo unspecified) ?
6.25 µg/mL

Next:
Which MIC reading was recorded for the compound Cc1ccc(N2C(=O)C(Cl)C23C(=O)Nc2ccccc23)cc1 (stereo unspecified) ?
12.5 µg/mL

Which MIC reading was recorded for the compound Cc1ccc(N2C(=O)C(Cl)C23C(=O)Nc2c(Br)cc(Br)cc23)cc1 (stereo unspecified) ?
12.5 µg/mL

Which MIC reading was recorded for the compound CCC(C)n1ncn(-c2ccc(N3CCN(c4ccc(OCC5COC(Cn6cncn6)(c6ccc(Cl)cc6Cl)O5)cc4)CC3)cc2)c1=O (stereo unspecified) ?
6.25 µg/mL

---

tested on: Candida albicans; assay: Antifungal activity against Candida albicans MTCC-183 after 3 to 4 days by serial plate dilution method; assay type: functional; conditions: Candida albicans, MTCC-183
measured quantity: MIC (µg/mL)
Note: unit µg/mL is implicit; provide only the numeric part.

Here's what some known entries look like.
Which MIC reading was recorded for the compound O=C1C(Cl)C2(C(=O)Nc3c(Br)cc(Br)cc32)N1c1ccc([N+](=O)[O-])cc1 (stereo not given) ?
6.25

Which MIC reading was recorded for the compound O=C1C(Cl)C2(C(=O)Nc3ccccc32)N1c1ccc([N+](=O)[O-])cc1 (stereo not given) ?
6.25

Which MIC reading was recorded for the compound O=C1C(Cl)C2(C(=O)Nc3c(Br)cc(Br)cc32)N1c1ccccc1 (stereo not given) ?
12.5

Which MIC reading was recorded for the compound O=C1C(Cl)C2(C(=O)Nc3c(Br)cc(Br)cc32)N1c1ccccc1[N+](=O)[O-] (stereo not given) ?
6.25

# next compound below
Which MIC reading was recorded for the compound Cc1ccccc1N1C(=O)C(Cl)C12C(=O)Nc1c(Br)cc(Br)cc12 (stereo not given) ?
6.25

---

system: Staphylococcus aureus; assay: Antibacterial activity against Staphylococcus aureus MTCC-96 after 24 hr by disk-diffusion method; format: functional; note: test concentration or dose not given here
diameter of the inhibition zone (DIZ) values for the molecules below.
Note: unit mm is implicit; provide only the numeric part.

Here's what some known entries look like.
Which diameter of the inhibition zone (DIZ) reading was recorded for the molecule Cc1ccccc1N1C(=O)C(Cl)C12C(=O)Nc1c(Br)cc(Br)cc12 (stereo not drawn) ?
23

Which diameter of the inhibition zone (DIZ) reading was recorded for the molecule Cc1ccc(N2C(=O)C(Cl)C23C(=O)Nc2c(Br)cc(Br)cc23)cc1 (stereo not drawn) ?
24

# next molecule below
Which diameter of the inhibition zone (DIZ) reading was recorded for the molecule CC1(C)S[C@@H]2[C@H](NC(=O)[C@H](N)c3ccc(O)cc3)C(=O)N2[C@H]1C(=O)O ?
29

---

system: Staphylococcus aureus; experiment: Antibacterial activity against Staphylococcus aureus MTCC-96 after 24 hr by disk-diffusion method; format: functional; note: test concentration or dose not given here
Hi, to clarify the labels: met covers diameter of the inhibition zone (DIZ) from 20 mm upward, not met covers anything below 20 mm.

A selection of reference data follows.
API: above_or_equal(metric=diameter of the inhibition zone (DIZ), cutoff=20 mm) for item O=C1C(Cl)C2(C(=O)Nc3ccccc32)N1c1ccccc1[N+](=O)[O-] (centres undefined)
not met

API: above_or_equal(metric=diameter of the inhibition zone (DIZ), cutoff=20 mm) for item O=C1C(Cl)C2(C(=O)Nc3c(Br)cc(Br)cc32)N1c1ccc([N+](=O)[O-])cc1 (centres undefined)
met

API: above_or_equal(metric=diameter of the inhibition zone (DIZ), cutoff=20 mm) for item CN[C@@H]1[C@H](O[C@H]2[C@H](O[C@H]3[C@H](O)[C@@H](O)[C@H](N=C(N)N)[C@@H](O)[C@@H]3N=C(N)N)O[C@@H](C)[C@]2(O)C=O)O[C@@H](CO)[C@H](O)[C@H]1O
met

API: above_or_equal(metric=diameter of the inhibition zone (DIZ), cutoff=20 mm) for item O=C1C(Cl)C2(C(=O)Nc3ccccc32)N1c1ccccc1 (centres undefined)
met

API: above_or_equal(metric=diameter of the inhibition zone (DIZ), cutoff=20 mm) for item Cc1ccc(N2C(=O)C(Cl)C23C(=O)Nc2ccccc23)cc1 (centres undefined)
not met

API: above_or_equal(metric=diameter of the inhibition zone (DIZ), cutoff=20 mm) for item O=C1C(Cl)C2(C(=O)Nc3c(Br)cc(Br)cc32)N1c1ccccc1 (centres undefined)
met

Next:
API: above_or_equal(metric=diameter of the inhibition zone (DIZ), cutoff=20 mm) for item O=C1C(Cl)C2(C(=O)Nc3ccccc32)N1c1ccc([N+](=O)[O-])cc1 (centres undefined)
not met

API: above_or_equal(metric=diameter of the inhibition zone (DIZ), cutoff=20 mm) for item Cc1ccccc1N1C(=O)C(Cl)C12C(=O)Nc1ccccc12 (centres undefined)
met

API: above_or_equal(metric=diameter of the inhibition zone (DIZ), cutoff=20 mm) for item O=C1C(Cl)C2(C(=O)Nc3c(Br)cc(Br)cc32)N1c1ccccc1[N+](=O)[O-] (centres undefined)
met
